test_target: WT-EGFR (Homo sapiens (Human))
Sequence (P00533 668-1210): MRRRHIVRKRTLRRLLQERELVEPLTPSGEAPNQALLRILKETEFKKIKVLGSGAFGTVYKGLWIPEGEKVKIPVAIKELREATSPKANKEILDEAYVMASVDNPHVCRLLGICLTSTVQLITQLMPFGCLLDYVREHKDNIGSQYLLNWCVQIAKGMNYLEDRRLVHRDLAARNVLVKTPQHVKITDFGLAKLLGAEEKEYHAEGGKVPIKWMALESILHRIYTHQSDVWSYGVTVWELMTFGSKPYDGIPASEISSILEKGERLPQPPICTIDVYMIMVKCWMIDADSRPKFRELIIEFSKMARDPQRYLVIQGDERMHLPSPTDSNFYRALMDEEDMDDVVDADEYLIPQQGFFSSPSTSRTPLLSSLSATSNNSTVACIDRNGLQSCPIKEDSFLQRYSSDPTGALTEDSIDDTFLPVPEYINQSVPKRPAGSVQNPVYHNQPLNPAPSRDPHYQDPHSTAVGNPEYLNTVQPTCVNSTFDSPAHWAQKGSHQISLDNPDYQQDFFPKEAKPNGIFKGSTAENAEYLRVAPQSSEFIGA
assay_remarks: EGFR jump dilution study
Assay type: biochemical
setup_conditions: 100-fold dilution, 1 mM ATP, up to 10 hrs

- record_smiles: "COc1cc(N2CCC(N3CCN(C)CC3)CC2)ccc1Nc1ncc(Cl)c(Nc2ccccc2-c2cccc(C=O)c2O)n1"
  test_target: "WT-EGFR (Homo sapiens (Human))"
  off-rate kinetics after jump dilution: "slow-off kinetics"
- record_smiles: "COc1cc(N2CCC(N3CCN(C)CC3)CC2)ccc1Nc1ncc(-c2ccc(O)c(C=O)c2)c(Nc2ccccc2)n1"
  test_target: "WT-EGFR (Homo sapiens (Human))"
  off-rate kinetics after jump dilution: "slow-off kinetics"
- record_smiles: "COc1cc(N(C)CCN(C)C)c(NC(C)=O)cc1Nc1nccc(-c2cn(Cc3cccc(C=O)c3O)c3ccccc23)n1"
  test_target: "WT-EGFR (Homo sapiens (Human))"
  off-rate kinetics after jump dilution: "slow-off kinetics"

====

test_target: EGFR WT in Ba/F3 cells (Homo sapiens (Human), UniProt P00533)
Sequence (P00533 25-1210): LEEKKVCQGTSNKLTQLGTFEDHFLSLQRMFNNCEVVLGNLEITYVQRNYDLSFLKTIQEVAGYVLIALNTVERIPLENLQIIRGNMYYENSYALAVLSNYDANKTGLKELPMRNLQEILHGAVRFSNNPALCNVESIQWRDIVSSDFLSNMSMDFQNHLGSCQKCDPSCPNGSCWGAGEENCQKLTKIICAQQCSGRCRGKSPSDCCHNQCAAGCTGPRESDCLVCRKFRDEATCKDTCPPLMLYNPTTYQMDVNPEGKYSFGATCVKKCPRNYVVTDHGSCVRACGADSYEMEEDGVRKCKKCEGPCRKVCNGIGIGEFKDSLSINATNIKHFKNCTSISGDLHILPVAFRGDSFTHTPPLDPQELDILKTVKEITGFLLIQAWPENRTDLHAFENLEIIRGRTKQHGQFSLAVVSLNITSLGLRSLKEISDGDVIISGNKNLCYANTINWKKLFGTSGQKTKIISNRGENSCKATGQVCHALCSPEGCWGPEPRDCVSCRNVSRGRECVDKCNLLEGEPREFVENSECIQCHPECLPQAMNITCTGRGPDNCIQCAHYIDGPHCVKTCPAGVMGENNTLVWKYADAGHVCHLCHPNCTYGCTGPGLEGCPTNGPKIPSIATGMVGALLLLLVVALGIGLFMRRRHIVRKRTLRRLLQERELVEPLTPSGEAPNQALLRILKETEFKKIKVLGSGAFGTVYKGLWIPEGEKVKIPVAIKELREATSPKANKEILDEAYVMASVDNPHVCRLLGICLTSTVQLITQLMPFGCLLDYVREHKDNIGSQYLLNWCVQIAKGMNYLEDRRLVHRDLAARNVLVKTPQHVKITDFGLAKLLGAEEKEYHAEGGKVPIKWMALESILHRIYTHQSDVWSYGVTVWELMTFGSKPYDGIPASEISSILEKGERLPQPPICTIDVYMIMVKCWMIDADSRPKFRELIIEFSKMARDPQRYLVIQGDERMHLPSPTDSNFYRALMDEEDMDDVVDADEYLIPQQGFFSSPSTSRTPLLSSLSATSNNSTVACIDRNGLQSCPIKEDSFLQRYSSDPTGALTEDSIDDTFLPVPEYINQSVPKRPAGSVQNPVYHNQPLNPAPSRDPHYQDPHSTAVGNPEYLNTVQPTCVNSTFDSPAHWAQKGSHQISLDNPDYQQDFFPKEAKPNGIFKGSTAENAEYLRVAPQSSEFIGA
assay_remarks: Ba/F3 pEGFR assay (AlphaLISA p-EGFR Tyr1068)
Assay type: cell-based
setup_conditions: 2 hrs treatment, media supplemented with EGF
experimental_readout: IC50 (µM)

These solved cases illustrate the format of a correct answer.
- record_smiles: "CN1CCN(Cc2ccc3[nH]/c(=N\\C(=O)c4ccnc(C#Cc5c(F)ccc(O)c5C=O)c4)n(CC(C)(C)O)c3c2)CC1"
  IC50 [µM]: 1.77
- record_smiles: "CC(C)(O)Cn1/c(=N/C(=O)c2ccnc(Oc3cccc(O)c3C=O)c2)[nH]c2ccc(CN3CCC(C(C)(C)O)CC3)cc21"
  IC50 [µM]: 4.77
- record_smiles: "CC(C)Cn1/c(=N/C(=O)c2ccnc(Oc3cccc(O)c3C=O)c2)[nH]c2ccc(CN3CCN(C)CC3)cc21"
  IC50 [µM]: 3.55
- record_smiles: "CC(C)(O)Cn1/c(=N/C(=O)c2ccnc(Oc3cccc(O)c3C=O)c2)[nH]c2ccc(N3CCOCC3)cc21"
  IC50 [µM]: 3.23
- record_smiles: "CC(C)(O)Cn1/c(=N/C(=O)c2ccnc(CCc3cccc(O)c3C=O)c2)[nH]c2ccccc21"
  IC50 [µM]: 5.2
- record_smiles: "CC(C)(O)Cn1/c(=N/C(=O)c2ccnc(Oc3cccc(O)c3C=O)c2)[nH]c2ccc(CN3CCOCC3)cc21"
  IC50 [µM]: 2.37
- record_smiles: "CC(C)c1ccc(N2CC(CS(C)(=O)=O)C2)c2cnc(Nc3ccnc(N(C)Cc4cccc(C=O)c4O)n3)cc12"
  IC50 [µM]: 2.29
- record_smiles: "CC(C)(O)Cn1/c(=N/C(=O)c2ccnc(Oc3cccc(O)c3C=O)c2)[nH]c2ccc(N3CCC(C(C)(C)O)CC3)cc21"
  IC50 [µM]: 4.58

a = CN1CCN(Cc2ccc3[nH]/c(=N\C(=O)c4cccc(Oc5cccc(O)c5C=O)c4)n(CC(C)(C)O)c3c2)CC1
b = CN1CCN(Cc2ccc3[nH]/c(=N\C(=O)c4cc(F)nc(Oc5cccc(O)c5C=O)c4)n(CC(C)(C)O)c3c2)CC1
c = CN1CCN(Cc2ccc3[nH]/c(=N\C(=O)c4ccnc(OCc5cccc(O)c5C=O)c4)n(CC(C)(C)O)c3c2)CC1
d = CC(=O)Nc1cccc(C#Cc2cc(C(=O)/N=c3\[nH]c4ccc(CN5CCN(C)CC5)cc4n3CC(C)(C)O)ccn2)c1C=O
Put the items in sequence by IC50, from largest down. Answer format: the labels, in the requested order.
c, a, b, d

====

test_target: EGFR WT (Homo sapiens (Human))
Sequence (P00533 668-1210): as the sequence (P00533 668-1210) above
pIC50: −log10 of the molar value.
experimental_readout: pIC50

- record_smiles: "CC(C)(O)Cn1/c(=N/C(=O)c2ccnc(Oc3cccc(O)c3C=O)c2)[nH]c2ccc(N3CCOCC3)cc21"
  experimental_readout: "pIC50"
  result_number: 8.06

I = CN1CCN(Cc2ccc3[nH]/c(=N\C(=O)c4ccnc(C#Cc5cccc(NC(=O)C6CC6)c5C=O)c4)n(CC(C)(C)O)c3c2)CC1
II = CN1CCN(Cc2ccc3[nH]/c(=N\C(=O)c4cc(C#N)cc(Oc5cccc(O)c5C=O)c4)n(CC(C)(C)O)c3c2)CC1
III = CN1CCN(Cc2ccc3[nH]/c(=N\C(=O)c4ccnc(-c5ccn(-c6cccc(O)c6C=O)n5)c4)n(CC(C)(C)O)c3c2)CC1
IV = CC(C)(O)Cn1/c(=N/C(=O)c2ccnc(Oc3cccc(O)c3C=O)c2)[nH]c2ccccc21
Put the items in sequence by pIC50, from largest down. Answer format: the labels, in the requested order.
II, IV, I, III

====

test_target: EGFR WT (Homo sapiens (Human))
assay_remarks: EGFR biochemical assay (AssayQuant chelation-enhanced fluorescence)
setup_conditions: 30 min preincubation, reaction time 360 min
experimental_readout: IC50 (nM)

These solved cases illustrate the format of a correct answer.
- record_smiles: "CN1CCN(Cc2ccc3[nH]/c(=N\\C(=O)c4ccnc(-n5cc(-c6cccc(O)c6C=O)cn5)c4)n(CC(C)(C)O)c3c2)CC1"
  IC50 [nM]: 52.1
- record_smiles: "CN1CCN(Cc2ccc3[nH]/c(=N\\C(=O)c4ccnc(C#Cc5cccc(O)c5C=O)c4)n(CC(C)(C)O)c3c2)CC1"
  IC50 [nM]: 7.05
- record_smiles: "COc1cc(N2CCC(N3CCN(C)CC3)CC2)ccc1Nc1ncc(-c2cccc(C=O)c2O)c(Nc2ccccc2)n1"
  IC50 [nM]: 398

A = COc1cc(N2CCC(N3CCN(C)CC3)CC2)ccc1Nc1ncc(Cl)c(Nc2cccc(-c3cccc(O)c3C=O)c2)n1
B = CN1CCN(Cc2ccc3[nH]/c(=N\C(=O)c4ccnc(C#Cc5cccc(NS(C)(=O)=O)c5C=O)c4)n(CC(C)(C)O)c3c2)CC1
C = CN1CCN(Cc2ccc3[nH]/c(=N\C(=O)c4cccc(Oc5cccc(O)c5C=O)c4)n(CC(C)(C)O)c3c2)CC1
D = CN1CCN(Cc2ccc3[nH]/c(=N\C(=O)c4ccnc(C#Cc5cccc(N)c5C=O)c4)n(CC(C)(C)O)c3c2)CC1
# rank by IC50, ascending (min first) Answer format: the labels, in the requested order.
C, B, D, A
(C: 8.42 nM, B: 58.2 nM, D: 129 nM, A: 872 nM)

====

test_target: EGFR WT in Ba/F3 cells (Homo sapiens (Human), UniProt P00533)
assay_remarks: Ba/F3 pEGFR assay (AlphaLISA p-EGFR Tyr1068)
setup_conditions: 2 hrs treatment, media supplemented with EGF
experimental_readout: IC50 (µM)

P = COc1cc(N2CCC(N3CCN(C)CC3)CC2)ccc1Nc1ncc(-c2ccc(O)c(C=O)c2F)c(Nc2ccccc2)n1
Q = CC(=O)Nc1cccc(-c2cnn(-c3cc(C(=O)/N=c4\[nH]c5ccc(CN6CCN(C)CC6)cc5n4CC(C)(C)O)ccn3)c2)c1C=O
I would appreciate it if you could say which entry, P or Q , has the lower IC50 value. Return value: the label identifying the chosen record.
P
(P: 0.0708 µM, Q: 5.78 µM)

====

test_target: EGFR WT in Ba/F3 cells (Homo sapiens (Human), UniProt P00533)
assay_remarks: Ba/F3 pEGFR assay (AlphaLISA p-EGFR Tyr1068)
setup_conditions: 2 hrs treatment, media supplemented with EGF
pIC50: −log10 of the molar value.
experimental_readout: pIC50

- compound: "CN(C)C/C=C/C(=O)N1CCCC[C@@H](n2c(NC(=O)c3ccnc(Oc4cccc(O)c4C=O)c3)nc3cccc(Cl)c32)C1 [Compound 126]"
  pIC50: 5.69

I = CN1CCN(Cc2ccc3[nH]/c(=N\C(=O)c4ccnc(C#Cc5cccc(N)c5C=O)c4)n(CC(C)(C)O)c3c2)CC1 [Compound 99]
II = CN1CCN(Cc2ccc3[nH]/c(=N\C(=O)c4ccnc(C#Cc5cccc(NC(=O)C6CC6)c5C=O)c4)n(CC(C)(C)O)c3c2)CC1 [Compound 87]
III = CN1CCN(Cc2ccc3[nH]/c(=N\C(=O)c4ccnc(C#Cc5cccc(O)c5C=O)c4)n(CC(C)(C)O)c3c2)CC1 [Compound 62]
Put the items in sequence by pIC50, from largest down. Answer format: the labels, in the requested order.
II, I, III
(II: 6.57, I: 5.89, III: 5.47)

====

test_target: EGFR WT in Ba/F3 cells (Homo sapiens (Human), UniProt P00533)
assay_remarks: Ba/F3 pEGFR assay (AlphaLISA p-EGFR Tyr1068)
setup_conditions: 2 hrs treatment, media supplemented with EGF
experimental_readout: IC50 (µM)

These solved cases illustrate the format of a correct answer.
- molecule: "CN1CCN(C(=O)c2ccc3[nH]/c(=N\\C(=O)c4ccnc(Oc5cccc(O)c5C=O)c4)n(CC(C)(C)O)c3c2)CC1 [Compound 71]"
  test_target: "EGFR WT in Ba/F3 cells (Homo sapiens (Human), UniProt P00533)"
  IC50 [µM]: 4.95
- molecule: "CN1CCN(Cc2ccc3[nH]/c(=N\\C(=O)c4ccc(F)c(Oc5cccc(O)c5C=O)c4)n(CC(C)(C)O)c3c2)CC1 [Compound 110]"
  test_target: "EGFR WT in Ba/F3 cells (Homo sapiens (Human), UniProt P00533)"
  IC50 [µM]: 1.49
- molecule: "CC(=O)Nc1cccc(C#Cc2cc(C(=O)/N=c3\\[nH]c4ccc(CN5CCN(C)CC5)cc4n3CC(C)(C)O)cc(C)n2)c1C=O [Compound 97]"
  test_target: "EGFR WT in Ba/F3 cells (Homo sapiens (Human), UniProt P00533)"
  IC50 [µM]: 7.95
- molecule: "CC(=O)Nc1cccc(Oc2cc(C(=O)/N=c3\\[nH]c4ccc(CN5CCN(C)CC5)cc4n3CC(C)(C)O)ccn2)c1C=O [Compound 98]"
  test_target: "EGFR WT in Ba/F3 cells (Homo sapiens (Human), UniProt P00533)"
  IC50 [µM]: 1.83

A = CN1CCN(Cc2ccc3[nH]/c(=N\C(=O)c4ccnc(C#Cc5cccc(NC(=O)C(F)(F)F)c5C=O)c4)n(CC(C)(C)O)c3c2)CC1 [Compound 101]
B = COc1cc(N2CCC(N3CCN(C)CC3)CC2)ccc1Nc1ncc(-c2cc(F)c(O)c(C=O)c2)c(Nc2ccccc2)n1 [Compound 9]
I would appreciate it if you could say which entry, A or B , has the lower IC50 value. Return value: the label identifying the chosen record.
B
